Record set of Ki for target or system human MR (Homo sapiens).

# Cpd Smiles, Ki
data = [
    ("CN1CCN(CCn2c(=O)[nH]c3cc(C=C4c5ccc(F)cc5CCc5cc(F)ccc54)ccc32)CC1", "< 500 nM"),
    ("O=c1[nH]c2cc(/C=C3\\c4ccc(F)cc4COc4cc(F)ccc43)ccc2n1C1CCNCC1", "< 500 nM"),
    ("O=c1[nH]c2cc(/C=C3\\c4ccccc4COc4cc(F)ccc43)ccc2n1CCN1CCNCC1", "< 500 nM"),
    ("O=c1[nH]c2cc(/C=C3\\c4ccccc4COc4cc(F)ccc43)ccc2n1C[C@@H]1CCCN1", "< 500 nM"),
    ("O=c1[nH]c2cc(/C=C3\\c4ccc(F)cc4COc4cc(F)ccc43)ccc2n1CCN1CCCC1", "< 500 nM"),
    ("CN1CC[C@H](n2c(=O)[nH]c3cc(/C=C4\\c5ccc(F)cc5COc5cc(F)ccc54)ccc32)C1", "< 500 nM"),
    ("O=c1[nH]c2cc(C=C3c4ccc(F)cc4CCc4cc(F)ccc43)ccc2n1CCN1CCNCC1", "< 500 nM"),
    ("CN1CCN(CCCn2c(=O)[nH]c3cc(/C=C4\\c5ccccc5COc5cc(F)ccc54)ccc32)CC1", "< 500 nM"),
    ("O=c1[nH]c2cc(/C=C3/c4ccc(F)cc4OCc4c(F)cccc43)ccc2n1CCCN1CCOCC1", "< 500 nM"),
    ("CN1CC[C@@H](n2c(=O)[nH]c3cc(/C=C4/c5ccc(F)cc5OCc5c(F)cccc54)ccc32)C1", "< 500 nM"),
    ("C[C@@H]1CN(CCn2c(=O)[nH]c3cc(/C=C4\\c5ccc(F)cc5COc5cc(F)ccc54)ccc32)C[C@H](C)O1", "< 500 nM"),
    ("CCN1CC[C@H](n2c(=O)[nH]c3cc(/C=C4\\c5ccc(F)cc5COc5cc(F)ccc54)ccc32)C1", "< 500 nM"),
    ("O=c1[nH]c2cc(/C=C3\\c4ccccc4COc4cc(F)ccc43)ccc2n1C[C@H]1CCCN1", "< 500 nM"),
    ("O=c1[nH]c2cc(/C=C3\\c4ccc(F)cc4COc4cc(F)ccc43)ccc2n1[C@@H]1CCNC1", "< 500 nM"),
    ("C[C@@H](CN1CCOCC1)n1c(=O)[nH]c2cc(/C=C3\\c4ccc(F)cc4COc4cc(F)ccc43)ccc21", "< 500 nM"),
]

====

Molecular target: human GR (glucocorticoid receptor) (Homo sapiens, UniProt P04150)
Sequence (P04150 1-777): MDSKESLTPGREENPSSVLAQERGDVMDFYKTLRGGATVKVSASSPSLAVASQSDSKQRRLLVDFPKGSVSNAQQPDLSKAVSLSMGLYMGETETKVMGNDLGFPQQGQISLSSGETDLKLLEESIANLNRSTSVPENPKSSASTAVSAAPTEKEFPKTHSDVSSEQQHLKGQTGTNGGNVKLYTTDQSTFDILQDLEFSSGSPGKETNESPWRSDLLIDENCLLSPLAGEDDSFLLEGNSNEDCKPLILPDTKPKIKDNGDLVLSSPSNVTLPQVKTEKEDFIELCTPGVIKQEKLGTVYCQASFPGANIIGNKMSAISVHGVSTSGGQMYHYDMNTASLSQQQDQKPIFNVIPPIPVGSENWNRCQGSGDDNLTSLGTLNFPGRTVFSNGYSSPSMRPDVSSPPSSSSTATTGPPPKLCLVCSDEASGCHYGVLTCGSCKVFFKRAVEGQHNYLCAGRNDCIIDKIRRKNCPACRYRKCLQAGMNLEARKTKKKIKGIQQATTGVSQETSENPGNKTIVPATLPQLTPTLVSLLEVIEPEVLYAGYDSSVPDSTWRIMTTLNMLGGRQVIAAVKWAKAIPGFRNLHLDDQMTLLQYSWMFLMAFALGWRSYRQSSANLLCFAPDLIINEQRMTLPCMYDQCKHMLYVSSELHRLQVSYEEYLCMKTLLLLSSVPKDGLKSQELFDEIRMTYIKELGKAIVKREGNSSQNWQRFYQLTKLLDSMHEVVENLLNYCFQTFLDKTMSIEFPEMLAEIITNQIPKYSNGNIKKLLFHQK
Assay: Alternative Binding Assay Protocol (Method 2), GR
Settings: 293-GR lysate, 3H-dexamethasone
Measured Ki, listed per entry for reference.

# Cpd Smiles, Measured Target, Ki
data = [
    ("C[C@@H](CN1CCOCC1)n1c(=O)[nH]c2cc(/C=C3\\c4ccc(F)cc4COc4cc(F)ccc43)ccc21", "human GR (glucocorticoid receptor) (Homo sapiens, UniProt P04150)", "< 1000 nM"),
    ("CN1CCC(n2c(=O)[nH]c3cc(/C=C4/c5ccc(F)cc5OCc5c(F)cccc54)ccc32)CC1", "human GR (glucocorticoid receptor) (Homo sapiens, UniProt P04150)", "< 1000 nM"),
    ("O=c1[nH]c2cc(/C=C3/c4ccc(F)cc4OCc4c(F)cccc43)ccc2n1CCN1CCCC1", "human GR (glucocorticoid receptor) (Homo sapiens, UniProt P04150)", "< 1000 nM"),
    ("O=c1[nH]c2cc(/C=C3\\c4ccc(F)cc4COc4cc(F)ccc43)ccc2n1C1CNC1", "human GR (glucocorticoid receptor) (Homo sapiens, UniProt P04150)", "< 500 nM"),
    ("O=c1[nH]c2cc(/C=C3\\c4ccccc4COc4cc(F)ccc43)ccc2n1[C@H]1CCNC1", "human GR (glucocorticoid receptor) (Homo sapiens, UniProt P04150)", "< 500 nM"),
    ("CN1CCN(CCn2c(=O)[nH]c3cc(/C=C4\\c5ccc(F)cc5COc5cc(F)ccc54)ccc32)CC1", "human GR (glucocorticoid receptor) (Homo sapiens, UniProt P04150)", "< 500 nM"),
]

====

Biological target: UniProtKB P08235
Sequence (P08235 1-984): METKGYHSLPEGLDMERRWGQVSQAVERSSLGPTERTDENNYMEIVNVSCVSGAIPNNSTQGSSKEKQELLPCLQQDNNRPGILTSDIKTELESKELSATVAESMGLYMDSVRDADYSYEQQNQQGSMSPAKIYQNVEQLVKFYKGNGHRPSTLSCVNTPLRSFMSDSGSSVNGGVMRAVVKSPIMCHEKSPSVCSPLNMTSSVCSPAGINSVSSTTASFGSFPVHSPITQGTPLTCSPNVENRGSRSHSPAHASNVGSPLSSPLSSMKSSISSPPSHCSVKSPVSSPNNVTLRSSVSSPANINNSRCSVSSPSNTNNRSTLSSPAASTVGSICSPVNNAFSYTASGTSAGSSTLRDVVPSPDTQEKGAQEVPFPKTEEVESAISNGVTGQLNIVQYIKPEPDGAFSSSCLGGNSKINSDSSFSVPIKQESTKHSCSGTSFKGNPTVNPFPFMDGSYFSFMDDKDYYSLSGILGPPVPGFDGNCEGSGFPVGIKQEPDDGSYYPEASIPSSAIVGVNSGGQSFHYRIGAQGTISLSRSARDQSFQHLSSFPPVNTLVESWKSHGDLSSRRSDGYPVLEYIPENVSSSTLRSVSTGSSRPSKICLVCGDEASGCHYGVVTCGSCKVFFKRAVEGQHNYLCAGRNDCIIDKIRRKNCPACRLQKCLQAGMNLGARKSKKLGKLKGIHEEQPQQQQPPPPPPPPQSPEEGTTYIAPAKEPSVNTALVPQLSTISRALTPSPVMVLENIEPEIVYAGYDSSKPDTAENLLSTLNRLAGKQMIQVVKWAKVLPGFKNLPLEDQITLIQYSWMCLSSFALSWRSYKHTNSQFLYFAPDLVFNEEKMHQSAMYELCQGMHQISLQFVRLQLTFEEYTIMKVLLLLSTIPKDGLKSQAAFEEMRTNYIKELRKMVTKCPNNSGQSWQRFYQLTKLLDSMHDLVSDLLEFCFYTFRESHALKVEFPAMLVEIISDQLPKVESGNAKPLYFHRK
Measured Ki, listed per entry for reference.

# Compound, Ki
records = [
    ("O=c1[nH]c2cc(/C=C3/c4ccc(F)cc4OCc4c(F)cccc43)ccc2n1C1CCNCC1", "< 500 nM"),
    ("O=c1[nH]c2cc(C=C3c4ccc(F)cc4CCc4cc(F)ccc43)ccc2n1CCN1CCCC1", "< 500 nM"),
    ("O=c1[nH]c2cc(/C=C3\\c4ccccc4COc4cc(F)ccc43)ccc2n1C1CCNC1 (stereo not shown)", "< 500 nM"),
    ("CN1CCN(CCn2c(=O)[nH]c3cc(/C=C4/c5ccc(F)cc5OCc5c(F)cccc54)ccc32)CC1", "< 500 nM"),
]
